Test: Plasma concentration in mouse at 10 mg/kg, iv at 60 mins by LC-MS/MS method
Type: ADME, organism-based
property-measured: concentration at 1 h

Exercise: Dear colleague, please send me the reported concentration at 1 h for "O=c1c(-c2ccc(O)cc2)coc2cc(O)cc(O)c12" when you can.
Solution: < 1000 nM

Exercise: Identify measured concentration at 1 h corresponding to "COc1cc(/C=C/c2ccc(O)cc2)cc(OC)c1"
Solution: 15000 nM

Exercise: For "Oc1ccc(/C=C/c2cc(O)cc(O)c2)cc1" , write its concentration at 1 h.
Solution: < 1000 nM

Exercise: Look up and state reported concentration at 1 h for "O=c1c(O)c(-c2ccc(O)c(O)c2)oc2cc(O)cc(O)c12"
Solution: < 1000 nM

Exercise: Give recorded concentration at 1 h. O=C(O[C@@H]1Cc2c(O)cc(O)cc2O[C@@H]1c1cc(O)c(O)c(O)c1)c1cc(O)c(O)c(O)c1 [EPIGALOCATECHIN GALLATE]
Solution: < 1000 nM

Exercise: Recall and state the measured concentration at 1 h for "COc1cc(/C=C/C(=O)CC(=O)/C=C/c2ccc(O)c(OC)c2)ccc1O" .
Solution: < 1000 nM

* * *

Test system: Lipid bilayer
Assay: Induction of DOPC/n-decane bilayer property changes assessed as concentration required to double gramicidin-induced quencher influx rate by […]
Label y when Activity >= 10 µM; otherwise n.

Exercise: hey, is Activity for this one >= 10 µM? O=C(O[C@@H]1Cc2c(O)cc(O)cc2O[C@@H]1c1cc(O)c(O)c(O)c1)c1cc(O)c(O)c(O)c1 [EPIGALOCATECHIN GALLATE]
Solution: y

Exercise: Confirm if Activity reported for the compound Oc1ccc(/C=C/c2cc(O)cc(O)c2)cc1 [RESVERATROL] is 10 µM or above.
Solution: y

Exercise: Activity >= 10 µM for COc1cc(/C=C/C(=O)CC(=O)/C=C/c2ccc(O)c(OC)c2)ccc1O [CURCUMIN] ?
Solution: n

Exercise: For this compound, is measured Activity 10 µM or higher? "COc1cc(CNC(=O)CCCC/C=C/C(C)C)ccc1O"
Solution: y

Exercise: Dear colleague, could you confirm whether O=c1c(-c2ccc(O)cc2)coc2cc(O)cc(O)c12 [GENISTEIN] has Activity at or above 10 µM?
Solution: y

* * *

Target: Cannabinoid receptor 1 (Homo sapiens, UniProt P21554)
Sequence (P21554 whole entry): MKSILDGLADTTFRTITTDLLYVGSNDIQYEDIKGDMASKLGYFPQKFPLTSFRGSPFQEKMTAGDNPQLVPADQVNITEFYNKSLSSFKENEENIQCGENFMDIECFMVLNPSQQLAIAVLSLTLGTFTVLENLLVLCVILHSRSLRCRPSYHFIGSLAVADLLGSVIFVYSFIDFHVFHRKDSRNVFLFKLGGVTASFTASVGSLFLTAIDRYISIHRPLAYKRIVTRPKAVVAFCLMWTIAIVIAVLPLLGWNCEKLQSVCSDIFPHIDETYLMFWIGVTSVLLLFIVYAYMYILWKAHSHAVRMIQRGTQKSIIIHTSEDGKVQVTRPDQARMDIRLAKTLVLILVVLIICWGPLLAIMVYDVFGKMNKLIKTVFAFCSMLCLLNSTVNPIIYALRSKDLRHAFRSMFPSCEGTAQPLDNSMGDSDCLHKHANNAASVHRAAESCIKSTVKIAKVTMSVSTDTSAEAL
Test: Displacement of […] from human recombinant CB1 receptor expressed in Chem1 cells after 90 mins by scintillation counting method
property-measured: Ki (µM)
Reply numerically in µM, unit not repeated.

Exercise: Look up and state reported Ki for O=C(O[C@@H]1Cc2c(O)cc(O)cc2O[C@@H]1c1cc(O)c(O)c(O)c1)c1cc(O)c(O)c(O)c1 [EPIGALOCATECHIN GALLATE]
Solution: 33.6

* * *

Test system: COLO 201
Assay: Cytotoxicity against human COLO201 cells assessed as decrease in cell viability after 48 hrs by trypan blue exclusion and LDH release
Conditions: COLO 201, 48 h
property-measured: pIC50
pIC50 (log units): -log10 of the concentration in mol/L.

Exercise: Tell me measured pIC50 for "COc1cc(/C=C/C(=O)CC(=O)/C=C/c2ccc(O)c(OC)c2)ccc1O" please.
Solution: 4.74

Exercise: Report pIC50, nothing else, for this compound: O=C(O[C@@H]1Cc2c(O)cc(O)cc2O[C@@H]1c1cc(O)c(O)c(O)c1)c1cc(O)c(O)c(O)c1 [EPIGALOCATECHIN GALLATE]
Solution: 4.42

Exercise: Check the records and state pIC50 for "Oc1ccc(/C=C/c2cc(O)cc(O)c2)cc1"
Solution: 4.43

Exercise: Answer with the recorded pIC50 of "COc1cc(/C=C/c2ccc(O)cc2)cc(OC)c1" only.
Solution: 4.54

Exercise: Check the records and state pIC50 for "O=c1c(O)c(-c2ccc(O)c(O)c2)oc2cc(O)cc(O)c12"
Solution: 4.72

Exercise: Please report pIC50 for the following compound: "O=c1c(-c2ccc(O)cc2)coc2cc(O)cc(O)c12"
Solution: 4.14

Attribution: ChEMBL document CHEMBL4184147
